assay.target: 5-hydroxytryptamine receptor 2A (Homo sapiens)
assay.protocol: SafetyScreen: 5-HT2A Human Serotonin GPCR Binding Agonist Radioligand LeadHunter Assay, catalogue number: 471
condition: Test compound concentration 10.0 uM
Returns y if the recorded inhibition is greater than or equal to 10%, and n otherwise.

Item "C[C@H](C(=O)O)[C@@H](NC(=O)c1ncnc2[nH]ccc12)c1ccc(Br)cc1" with inhibition of 10% or above? n

// query: "COc1ccc([C@H](Cc2nnn[nH]2)NC(=O)c2ncnc3[nH]ccc23)cc1" n

Follow-up entry: "Cn1ncc(-c2cc3c(N[C@@H](c4ccc5c(n4)OCCO5)C(C)(C)C)ncnc3[nH]2)c1C#N" n

Same question, "CC(C)[C@H](Nc1ncnc2[nH]ccc12)c1ccc2c(c1)S(=O)(=O)CCC2" this time y

Note, next up: "CC(C)[C@H](Nc1ncnc2[nH]c(-c3cnn(C)c3C#N)cc12)c1ccc2c(n1)OCCO2" y

Same read-out for "Cc1nn(C)cc1-c1cc2c(N[C@H](c3ccc4c(c3)S(=O)(=O)CCC4)C(C)C)ncnc2[nH]1" ? y

Another molecule to look at: "CNCc1cc(-c2cc3c(N[C@@H](c4ccc5c(c4)S(=O)(=O)CCC5)C(C)C)ncnc3[nH]2)co1" y

Repeat with "CC(C)[C@@H](Nc1ncnc2[nH]c(-c3cnn(C)c3C#N)cc12)c1ccc2c(n1)OCCO2" y

Again, but for "CNC(=O)Cn1cc(-c2cc3c(N[C@@H](c4ccc5c(c4)S(=O)(=O)CCC5)C(C)C)ncnc3[nH]2)cn1" y

Repeat with "CC(C)[C@@H](Nc1ncnc2[nH]c(C(=O)N[C@@H]3CCN(C)C3)cc12)c1ccc2c(c1)S(=O)(=O)CCC2" n

---

assay.target: UniProtKB P10275
Sequence (P10275 whole entry): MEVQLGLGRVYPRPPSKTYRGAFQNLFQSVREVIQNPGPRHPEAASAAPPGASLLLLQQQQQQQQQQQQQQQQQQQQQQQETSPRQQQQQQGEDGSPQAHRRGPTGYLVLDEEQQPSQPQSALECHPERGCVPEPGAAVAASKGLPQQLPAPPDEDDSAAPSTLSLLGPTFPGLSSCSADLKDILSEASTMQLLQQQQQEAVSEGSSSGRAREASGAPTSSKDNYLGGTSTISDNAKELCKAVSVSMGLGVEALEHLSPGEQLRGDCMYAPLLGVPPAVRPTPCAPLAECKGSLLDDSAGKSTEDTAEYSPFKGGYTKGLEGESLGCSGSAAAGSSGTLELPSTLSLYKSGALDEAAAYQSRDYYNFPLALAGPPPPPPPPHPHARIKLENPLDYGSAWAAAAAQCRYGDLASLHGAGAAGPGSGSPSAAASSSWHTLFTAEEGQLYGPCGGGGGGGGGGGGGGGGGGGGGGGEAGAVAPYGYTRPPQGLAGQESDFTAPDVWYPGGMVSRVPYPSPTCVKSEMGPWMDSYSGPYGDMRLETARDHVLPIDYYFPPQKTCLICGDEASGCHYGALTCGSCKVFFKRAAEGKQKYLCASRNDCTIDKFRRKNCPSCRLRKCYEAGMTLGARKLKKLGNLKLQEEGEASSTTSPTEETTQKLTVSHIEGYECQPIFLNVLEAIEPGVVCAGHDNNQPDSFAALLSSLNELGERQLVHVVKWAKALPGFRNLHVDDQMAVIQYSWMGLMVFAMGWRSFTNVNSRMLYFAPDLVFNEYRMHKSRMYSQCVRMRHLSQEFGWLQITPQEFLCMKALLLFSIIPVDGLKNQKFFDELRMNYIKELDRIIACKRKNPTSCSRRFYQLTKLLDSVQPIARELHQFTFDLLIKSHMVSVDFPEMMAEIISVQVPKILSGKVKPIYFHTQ
assay.protocol: SafetyScreen: AR Human Androgen NHR Binding Agonist Radioligand LeadHunter Assay, catalogue number: 933
condition: Test compound concentration 10.0 uM
quantity: inhibition (%)
The figure you give is taken to be in %; do not add the unit.

Name the reported inhibition value associated with the compound "CC(C)[C@@H](Nc1ncnc2[nH]c(-c3cnn(C)c3C#N)cc12)c1ccc2c(n1)OCCO2" 12

"CNC(=O)Cn1cc(-c2cc3c(N[C@@H](c4ccc5c(c4)S(=O)(=O)CCC5)C(C)C)ncnc3[nH]2)cn1" , same question. 0

Also "COc1ccc([C@H](Cc2nnn[nH]2)NC(=O)c2ncnc3[nH]ccc23)cc1" , if possible. -2

Next compound up: "Cn1ncc(-c2cc3c(N[C@@H](c4ccc5c(n4)OCCO5)C(C)(C)C)ncnc3[nH]2)c1C#N" 5

Same lookup for "C[C@H](C(=O)O)[C@@H](NC(=O)c1ncnc2[nH]ccc12)c1ccc(Br)cc1" , please. 12

Request: "CC(C)[C@@H](Nc1ncnc2[nH]c(C(=O)N[C@@H]3CCN(C)C3)cc12)c1ccc2c(c1)S(=O)(=O)CCC2" -5

And then "CNCc1cc(-c2cc3c(N[C@@H](c4ccc5c(c4)S(=O)(=O)CCC5)C(C)C)ncnc3[nH]2)co1" , what is it? 10

Same thing, different compound: "Cc1nn(C)cc1-c1cc2c(N[C@H](c3ccc4c(c3)S(=O)(=O)CCC4)C(C)C)ncnc2[nH]1" 6

What do you have for "CC(C)[C@H](Nc1ncnc2[nH]c(-c3cnn(C)c3C#N)cc12)c1ccc2c(n1)OCCO2" ? -3

Next: "CC(C)[C@H](Nc1ncnc2[nH]ccc12)c1ccc2c(c1)S(=O)(=O)CCC2" 0

---

assay.target: Amine oxidase [flavin-containing] A (Rattus norvegicus, UniProt P21396)
Sequence (P21396 whole entry): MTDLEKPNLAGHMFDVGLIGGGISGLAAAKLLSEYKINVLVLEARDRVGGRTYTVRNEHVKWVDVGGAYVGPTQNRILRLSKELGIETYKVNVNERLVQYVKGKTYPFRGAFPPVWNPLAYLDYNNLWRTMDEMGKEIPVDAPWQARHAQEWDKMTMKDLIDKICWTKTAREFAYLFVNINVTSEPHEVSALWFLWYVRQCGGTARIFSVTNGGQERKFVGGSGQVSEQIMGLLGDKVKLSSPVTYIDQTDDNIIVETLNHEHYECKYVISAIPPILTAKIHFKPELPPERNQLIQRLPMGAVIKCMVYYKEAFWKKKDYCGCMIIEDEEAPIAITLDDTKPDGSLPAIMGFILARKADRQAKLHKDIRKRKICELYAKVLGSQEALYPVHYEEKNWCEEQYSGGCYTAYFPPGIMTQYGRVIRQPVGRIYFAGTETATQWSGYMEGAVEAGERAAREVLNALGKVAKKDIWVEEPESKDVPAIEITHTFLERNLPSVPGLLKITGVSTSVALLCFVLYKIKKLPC
assay.protocol: SafetyScreen: Monoamine Oxidase A (MAO-A) Rat Binding Antagonist Radioligand LeadHunter Assay, catalogue number: 443
condition: at 10 µM, test compound concentration 10 uM
quantity: Inhibition (%)
Record the value in %, omitting the unit from your answer.

Bench note: what Inhibition did "CC(C)[C@H](Nc1ncnc2[nH]c(-c3cnn(C)c3C#N)cc12)c1ccc2c(n1)OCCO2" show? 4

Next entry: "C[C@H](C(=O)O)[C@@H](NC(=O)c1ncnc2[nH]ccc12)c1ccc(Br)cc1" -1

Here is the next molecule: "Cc1nn(C)cc1-c1cc2c(N[C@H](c3ccc4c(c3)S(=O)(=O)CCC4)C(C)C)ncnc2[nH]1" 5

Please do the same for "Cn1ncc(-c2cc3c(N[C@@H](c4ccc5c(n4)OCCO5)C(C)(C)C)ncnc3[nH]2)c1C#N" as well. 10

Entry to check: "CC(C)[C@H](Nc1ncnc2[nH]ccc12)c1ccc2c(c1)S(=O)(=O)CCC2" 7

Then what about the molecule "CC(C)[C@@H](Nc1ncnc2[nH]c(C(=O)N[C@@H]3CCN(C)C3)cc12)c1ccc2c(c1)S(=O)(=O)CCC2" ? 3

For "CC(C)[C@@H](Nc1ncnc2[nH]c(-c3cnn(C)c3C#N)cc12)c1ccc2c(n1)OCCO2" then? 8

Next molecule: "COc1ccc([C@H](Cc2nnn[nH]2)NC(=O)c2ncnc3[nH]ccc23)cc1" 0

Continue with "CNC(=O)Cn1cc(-c2cc3c(N[C@@H](c4ccc5c(c4)S(=O)(=O)CCC5)C(C)C)ncnc3[nH]2)cn1" 8

Then this molecule: "CNCc1cc(-c2cc3c(N[C@@H](c4ccc5c(c4)S(=O)(=O)CCC5)C(C)C)ncnc3[nH]2)co1" 11

---

Give inhibition for every item shown.
assay.target: Adenosine receptor A2a (Homo sapiens) (UniProt P29274)
Sequence (P29274 whole entry): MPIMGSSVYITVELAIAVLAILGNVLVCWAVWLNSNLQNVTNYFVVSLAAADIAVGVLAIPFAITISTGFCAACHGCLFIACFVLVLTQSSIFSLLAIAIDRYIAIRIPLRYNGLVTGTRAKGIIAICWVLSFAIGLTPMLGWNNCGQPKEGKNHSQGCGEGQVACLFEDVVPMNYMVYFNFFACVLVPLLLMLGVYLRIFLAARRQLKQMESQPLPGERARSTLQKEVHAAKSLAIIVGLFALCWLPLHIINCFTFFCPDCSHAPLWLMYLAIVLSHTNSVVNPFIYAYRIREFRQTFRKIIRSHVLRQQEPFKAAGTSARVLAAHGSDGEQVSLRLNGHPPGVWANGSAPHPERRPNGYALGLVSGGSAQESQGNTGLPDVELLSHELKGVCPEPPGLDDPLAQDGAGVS
assay.protocol: SafetyScreen: A2A Human Adenosine GPCR Binding Agonist Radioligand LeadHunter Assay, catalogue number: 4
condition: Test compound concentration 10.0 uM
Give a bare numeral; the unit % is implied.

Request - read-out inhibition | tested on Adenosine receptor A2a (Homo sapiens) (UniProt P29274) | compound "CC(C)[C@@H](Nc1ncnc2[nH]c(C(=O)N[C@@H]3CCN(C)C3)cc12)c1ccc2c(c1)S(=O)(=O)CCC2" -4

Also check "CC(C)[C@H](Nc1ncnc2[nH]c(-c3cnn(C)c3C#N)cc12)c1ccc2c(n1)OCCO2" 84

Do the same for "CC(C)[C@H](Nc1ncnc2[nH]ccc12)c1ccc2c(c1)S(=O)(=O)CCC2" please 11

Same for "CNCc1cc(-c2cc3c(N[C@@H](c4ccc5c(c4)S(=O)(=O)CCC5)C(C)C)ncnc3[nH]2)co1" 21

---

assay.target: Vasopressin V1a receptor (Homo sapiens)
assay.protocol: SafetyScreen: V1A Human Vasopressin / Oxytocin GPCR Binding Agonist Radioligand LeadHunter Assay, catalogue number: 159
condition: Test compound concentration 10.0 uM
Can you tell me inhibition for the items I'm about to list?
Provide only the numeric value, understood in %.

Value lookup for inhibition; key = "CC(C)[C@H](Nc1ncnc2[nH]ccc12)c1ccc2c(c1)S(=O)(=O)CCC2" 6

Quick one: "Cc1nn(C)cc1-c1cc2c(N[C@H](c3ccc4c(c3)S(=O)(=O)CCC4)C(C)C)ncnc2[nH]1" 14

Please give the result for "Cn1ncc(-c2cc3c(N[C@@H](c4ccc5c(n4)OCCO5)C(C)(C)C)ncnc3[nH]2)c1C#N" too. 57

Next molecule: "CC(C)[C@@H](Nc1ncnc2[nH]c(C(=O)N[C@@H]3CCN(C)C3)cc12)c1ccc2c(c1)S(=O)(=O)CCC2" 6

Here is the next molecule: "CC(C)[C@@H](Nc1ncnc2[nH]c(-c3cnn(C)c3C#N)cc12)c1ccc2c(n1)OCCO2" 20

Would you mind doing "CNCc1cc(-c2cc3c(N[C@@H](c4ccc5c(c4)S(=O)(=O)CCC5)C(C)C)ncnc3[nH]2)co1" as well? 13

Try this molecule too: "CNC(=O)Cn1cc(-c2cc3c(N[C@@H](c4ccc5c(c4)S(=O)(=O)CCC5)C(C)C)ncnc3[nH]2)cn1" 15

Request: "CC(C)[C@H](Nc1ncnc2[nH]c(-c3cnn(C)c3C#N)cc12)c1ccc2c(n1)OCCO2" 27

Cool, now "COc1ccc([C@H](Cc2nnn[nH]2)NC(=O)c2ncnc3[nH]ccc23)cc1" 5

Next molecule up: "C[C@H](C(=O)O)[C@@H](NC(=O)c1ncnc2[nH]ccc12)c1ccc(Br)cc1" 62
